- Tested on: E. coli NR698
- Test description: Spot-on-lawn MIC bioassay
- Type: cell-based
- Conditions used: Escherichia coli, NR698
The following compounds are shown together with reported MIC values.
Reply numerically in mg/L, unit not repeated.

# Molecule, MIC, mg/L
rows = [
    ("O=C(N[C@@H]1C(=O)O[C@@H]1Cc1ccc([N+](=O)[O-])cc1)c1cccc(O)c1O", 4),
]

Query string: Consider the compound shown here: "O=C(N[C@@H]1C(=O)O[C@@H]1Cc1ccc([N+](=O)[O-])cc1)c1ccccc1O" What is its recorded MIC?
Result string: 1000

====

- Assay system: EcThrRS (Escherichia coli)
- Construct: His6 (N); made in house; host or cells: E. coli NiCo21(DE3)
- Sequence (P0A8M3 whole entry): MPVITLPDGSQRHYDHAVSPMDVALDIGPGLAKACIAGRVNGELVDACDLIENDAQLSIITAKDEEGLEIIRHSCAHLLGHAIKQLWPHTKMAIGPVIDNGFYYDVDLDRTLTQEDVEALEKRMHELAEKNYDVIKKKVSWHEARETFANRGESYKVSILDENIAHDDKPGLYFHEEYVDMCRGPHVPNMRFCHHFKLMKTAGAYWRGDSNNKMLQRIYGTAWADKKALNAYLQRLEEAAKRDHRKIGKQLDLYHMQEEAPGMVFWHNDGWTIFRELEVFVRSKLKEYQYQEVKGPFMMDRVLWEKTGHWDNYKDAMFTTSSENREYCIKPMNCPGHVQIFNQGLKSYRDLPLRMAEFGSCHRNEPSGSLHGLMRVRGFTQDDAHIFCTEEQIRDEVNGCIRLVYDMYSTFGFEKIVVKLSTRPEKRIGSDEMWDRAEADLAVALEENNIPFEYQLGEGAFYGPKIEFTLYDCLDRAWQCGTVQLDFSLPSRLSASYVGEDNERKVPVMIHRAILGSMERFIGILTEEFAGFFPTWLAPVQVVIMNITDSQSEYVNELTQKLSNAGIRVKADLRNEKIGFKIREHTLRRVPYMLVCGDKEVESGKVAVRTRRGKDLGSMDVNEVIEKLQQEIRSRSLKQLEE
- Test description: Aminoacylation assay
- Type: biochemical, E. coli
- Conditions used: enzyme 10 nM, 10 min preincubation with compound; read-out: IC50
The following molecules are shown together with reported IC50 values.
Reply numerically in nM, unit not repeated.

Look over these answered cases.
# Molecule, Measured metric, Value units, Quantitative readout
measured = [
    ("O=C(N[C@@H]1C(=O)O[C@@H]1Cc1ccc([N+](=O)[O-])cc1)c1ccccc1O [compound 2, 2-HBA-obafluorin]", "IC50", "nM", 3700),
    ("O=C(N[C@@H]1C(=O)O[C@@H]1Cc1ccc([N+](=O)[O-])cc1)c1cccc(O)c1 [compound 3, 3-HBA-obafluorin]", "IC50", "nM", 930),
]

Now let's try a different one.
Query string: Query the reported IC50 for EcThrRS (Escherichia coli); item: O=C(N[C@@H]1C(=O)O[C@@H]1Cc1ccc([N+](=O)[O-])cc1)c1cccc(O)c1O [compound 1, Obafluorin]
Result string: 35

====

- Test system: S. cerevisiae
- Test description: Spot-on-lawn MIC bioassay
- Assay type: cell-based, S. cerevisiae NCYC 2939
- Conditions used: Saccharomyces cerevisiae, standard conditions, read-out: MIC
The following compounds are shown together with reported MIC values.

Look over these answered cases.
# Molecule, Measured metric, Result
data = [
    ("O=C(N[C@@H]1C(=O)O[C@@H]1Cc1ccc([N+](=O)[O-])cc1)c1cccc(O)c1", "MIC", "> 1000 µg/mL"),
    ("O=C(N[C@@H]1C(=O)O[C@@H]1Cc1ccc([N+](=O)[O-])cc1)c1ccccc1", "MIC", "> 1000 µg/mL"),
]

Query string: Consider the compound shown here: "O=C(N[C@@H]1C(=O)O[C@@H]1Cc1ccc([N+](=O)[O-])cc1)c1ccccc1O" What is its recorded MIC?
Result string: > 1000 µg/mL

Query string: Another: "O=C(N[C@@H]1C(=O)O[C@@H]1Cc1ccc([N+](=O)[O-])cc1)c1cccc(O)c1O"
Result string: 1000 µg/mL

====

- Tested on: E. coli 25922
- Test description: Spot-on-lawn MIC bioassay
- Assay type: cell-based, E. coli ATCC 25922
- Conditions used: - Fe3+
Measured metric: lowest concentration which gave an inhibition zone (µg/mL)
Reply numerically in µg/mL, unit not repeated.

Look over these answered cases.
# Compound, Quantitative readout
rows = [
    ("CC1(C)S[C@@H]2[C@H](NC(=O)C(C(=O)O)c3ccccc3)C(=O)N2[C@H]1C(=O)O (stereo partly drawn) [Carbenicillin, carbenicillin, reference compound]", 1000),
    ("O=C1CN(/N=C/c2ccc([N+](=O)[O-])o2)C(=O)N1 [Nitrofurantoin, nitrofurantoin, reference compound]", 500),
]

Query string: Query the reported lowest concentration which gave an inhibition zone for E. coli 25922; item: O=C(N[C@H](CO)[C@H](O)c1ccc([N+](=O)[O-])cc1)C(Cl)Cl [Chloramphenicol, chloramphenicol, reference compound]
Result string: 1000

Query string: Another: [H]/N=C(/N)N[C@H]1[C@H](O)[C@@H](O)[C@H](O[C@@H]2O[C@@H](C)[C@](O)(C=O)[C@H]2O[C@@H]2O[C@@H](CO)[C@H](O)[C@@H](O)[C@@H]2NC)[C@@H](N/C(N)=N\[H])[C@@H]1O [Streptomycin, streptomycin, reference compound]
Result string: 50

Query string: Another: NC[C@H]1O[C@H](O[C@H]2[C@H](O)[C@@H](O[C@H]3O[C@H](CO)[C@@H](O)[C@H](N)[C@H]3O)[C@H](N)C[C@@H]2N)[C@H](O)[C@@H](O)[C@@H]1O [Kanamycin, kanamycin, reference compound]
Result string: 50

Query string: Another: CN[C@@H]1[C@@H](O[C@H]2O[C@H](CO)[C@@H](N)[C@H](O)[C@H]2O)OC2C[C@@H](N)[C@@H](O[C@H]3[C@H](O)[C@@H](O)[C@H](N)C[C@@H]3N)OC2[C@@H]1O (stereo partly drawn) [Apramycin, apramycin, reference compound]
Result string: 50
